Reported log10 AUC values are given for each entry in this list.
# PROTOCOL_NOTES: AUC in athymic CD1 nude mouse at 25 mg/kg, po by LC/MS/MS analysis
# Type: ADME, organism-based
# Parameters: dose 25 mg/kg, route oral
# EXPERIMENTAL_PARAMETERS: plasma
# values: log10(AUC), units ng·h/mL

Worked examples follow.
COc1ccc2c(c1)[C@]1(C[C@H]1c1ccc3c(/C=C/c4ccc(N5CCN(C)CC5)nc4)n[nH]c3c1)C(=O)N2
2.58
O=C1Nc2ccccc2[C@]12C[C@H]2c1ccc2c(/C=C/c3ccc(N4CCNCC4)cc3)n[nH]c2c1
2.53
COc1ccc2c(c1)[C@]1(C[C@H]1c1ccc3c(/C=C/c4ccc(CN5C[C@@H](C)O[C@@H](C)C5)cc4)n[nH]c3c1)C(=O)N2 [OCIFISERTIB]
3.99
COc1ccc2c(c1)[C@]1(C[C@H]1c1ccc3c(/C=C/c4ccc(CN5[C@H](C)CN(C)C[C@@H]5C)cc4)n[nH]c3c1)C(=O)N2
3.34
COc1ccc2c(c1)[C@]1(C[C@H]1c1ccc3c(/C=C/c4ccc(CN5CCOCC5)cc4)n[nH]c3c1)C(=O)N2C
4.23

Give me measured log10 AUC, please, for this compound: COc1ccc2c(c1)[C@]1(C[C@H]1c1ccc3c(/C=C/c4ccc(CN(C)C)cc4)n[nH]c3c1)C(=O)N2 2.81

----------
# PROTOCOL_NOTES: Cmax in athymic CD1 nude mouse at 25 mg/kg, po by LC/MS/MS analysis
# Type: ADME, organism-based
# Set-up: dose 25 mg/kg, route oral
# EXPERIMENTAL_PARAMETERS: in vivo
MEASURED_ENDPOINT: Cmax (ng/mL)
Numbers only here, please. The scale is ng/mL.

CN(C)Cc1ccc(/C=C/c2n[nH]c3cc([C@@H]4C[C@@]45C(=O)N(C)c4ccccc45)ccc23)cc1
510

# return recorded Cmax for input COc1ccc2c(c1)[C@]1(C[C@H]1c1ccc3c(/C=C/c4ccc(CN5C[C@@H](C)O[C@@H](C)C5)cc4)n[nH]c3c1)C(=O)N2 [OCIFISERTIB] 2200

Give Cmax for COc1ccc2c(c1)[C@]1(C[C@H]1c1ccc3c(/C=C/c4ccc(CN5CCOCC5)cc4)n[nH]c3c1)C(=O)N2C 5900
